# system: T1, Hera/Hera_K51Q heterodimer (Thermus thermophilus, UniProt O07897;O07897 1-510;1-510, K51Q)
# T1 sequence 1: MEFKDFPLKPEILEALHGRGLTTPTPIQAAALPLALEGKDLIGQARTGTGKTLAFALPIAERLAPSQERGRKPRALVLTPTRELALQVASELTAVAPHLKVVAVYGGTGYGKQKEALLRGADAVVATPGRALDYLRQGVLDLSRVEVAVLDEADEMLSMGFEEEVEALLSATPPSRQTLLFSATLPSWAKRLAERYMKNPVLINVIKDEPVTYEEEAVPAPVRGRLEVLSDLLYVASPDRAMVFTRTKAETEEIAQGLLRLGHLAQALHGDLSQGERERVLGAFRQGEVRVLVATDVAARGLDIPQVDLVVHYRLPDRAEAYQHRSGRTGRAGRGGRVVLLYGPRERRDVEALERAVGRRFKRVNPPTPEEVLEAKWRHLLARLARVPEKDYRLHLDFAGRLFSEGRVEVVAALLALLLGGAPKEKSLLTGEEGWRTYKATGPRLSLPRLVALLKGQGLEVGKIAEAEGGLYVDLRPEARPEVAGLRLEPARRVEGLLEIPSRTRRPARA
# T1 sequence 2: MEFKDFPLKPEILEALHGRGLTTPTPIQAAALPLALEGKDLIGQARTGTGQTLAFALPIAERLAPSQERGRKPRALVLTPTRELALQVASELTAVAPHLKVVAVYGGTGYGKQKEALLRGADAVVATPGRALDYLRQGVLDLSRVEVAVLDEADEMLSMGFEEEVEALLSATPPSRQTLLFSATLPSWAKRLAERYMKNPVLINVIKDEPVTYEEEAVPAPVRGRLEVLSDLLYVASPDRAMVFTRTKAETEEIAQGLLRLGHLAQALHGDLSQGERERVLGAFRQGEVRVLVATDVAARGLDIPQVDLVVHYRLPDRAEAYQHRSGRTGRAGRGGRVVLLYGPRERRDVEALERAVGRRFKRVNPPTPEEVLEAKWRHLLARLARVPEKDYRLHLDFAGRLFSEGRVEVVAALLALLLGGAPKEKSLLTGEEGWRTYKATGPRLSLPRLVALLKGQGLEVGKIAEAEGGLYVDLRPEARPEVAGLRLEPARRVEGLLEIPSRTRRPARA
# protocol: stopped-flow fluorescence
measured-metric: Kd (nM)
State just the number; it will be interpreted in nM.

q: # return recorded Kd for entry GCAGGUCCCAAGGGUUGGGCUGUUCGCCCAUU (structured_RNA) [fl-32mer]
a: 130
